Organism: Homo sapiens
Assay: Selectivity ratio of IC50 for recombinant HDAC3 (unknown origin) to IC50 for recombinant HDAC6 (unknown origin)
measure.name: Ratio IC50

>>> observed("COc1ccc2[nH]cc(CCN(Cc3ccc(C(=O)NO)cc3)C(=O)/C=C/c3ccc(O)c(OC)c3)c2c1")
53

I. COc1ccc2[nH]cc(CCNC(=O)CN(CCCCCC(=O)NO)C(=O)/C=C/c3ccc(O)c(OC)c3)c2c1
II. COc1ccc2c(c1)c(CCNC(C)=O)cn2CCCCCC(=O)NO
Between these two entries, I and II , state which has the higher Ratio IC50. Indicate which entry you chose by stating its label.
II

---

Biological target: Histone deacetylase 9 (Homo sapiens, UniProt Q9UKV0)
Sequence (Q9UKV0 whole entry): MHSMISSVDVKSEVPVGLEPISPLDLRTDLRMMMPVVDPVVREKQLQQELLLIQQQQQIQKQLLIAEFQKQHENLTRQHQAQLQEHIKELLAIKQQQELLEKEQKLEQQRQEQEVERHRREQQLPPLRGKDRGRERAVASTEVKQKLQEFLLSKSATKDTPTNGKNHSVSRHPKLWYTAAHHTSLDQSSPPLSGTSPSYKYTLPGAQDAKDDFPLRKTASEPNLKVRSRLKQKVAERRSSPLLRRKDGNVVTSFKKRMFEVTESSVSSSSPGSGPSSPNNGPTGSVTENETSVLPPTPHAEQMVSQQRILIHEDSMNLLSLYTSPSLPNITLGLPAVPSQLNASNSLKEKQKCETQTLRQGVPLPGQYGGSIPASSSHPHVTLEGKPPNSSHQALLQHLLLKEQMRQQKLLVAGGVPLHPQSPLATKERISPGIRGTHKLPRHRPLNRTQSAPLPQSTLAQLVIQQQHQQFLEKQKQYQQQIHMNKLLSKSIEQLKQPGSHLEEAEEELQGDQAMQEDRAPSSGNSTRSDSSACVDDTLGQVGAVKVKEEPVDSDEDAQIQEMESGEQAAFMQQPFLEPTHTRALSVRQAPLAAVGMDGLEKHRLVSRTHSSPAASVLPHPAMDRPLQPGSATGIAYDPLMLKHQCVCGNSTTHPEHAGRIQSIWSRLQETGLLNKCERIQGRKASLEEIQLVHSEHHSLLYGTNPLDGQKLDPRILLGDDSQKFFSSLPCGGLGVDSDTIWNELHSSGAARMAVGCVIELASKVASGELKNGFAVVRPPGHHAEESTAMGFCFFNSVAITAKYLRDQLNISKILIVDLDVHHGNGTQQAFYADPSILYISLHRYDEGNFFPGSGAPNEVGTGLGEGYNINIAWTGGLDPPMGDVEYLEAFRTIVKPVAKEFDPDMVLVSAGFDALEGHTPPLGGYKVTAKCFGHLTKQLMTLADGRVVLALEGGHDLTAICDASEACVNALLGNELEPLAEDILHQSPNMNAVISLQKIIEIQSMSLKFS
Experiment: Inhibition of recombinant HDAC9 (unknown origin) using Boc-Lys(trifluoroacetyl)-AMC as substrate pre-incubated for 1 hr followed by substrate addition and measured after 2 hrs by fluorescence based assay
measure.name: pIC50
Schema: pIC50 number; meaning minus log10 of the concentration expressed in molar units.

I am curious: what pIC50 value has been reported for "COc1ccc2c(c1)c(CCNC(C)=O)cn2Cc1ccc(C(=O)NO)cc1" ?
6.44
